The measured values listed here are drawn from paper PMC11147780.

Molecular target: T1, 10E8-GT10.2 epitope scaffold (designed scaffold 10E8-GT10.2 with …, N-linked glycosylation sites added (positions not given))
T1 chain: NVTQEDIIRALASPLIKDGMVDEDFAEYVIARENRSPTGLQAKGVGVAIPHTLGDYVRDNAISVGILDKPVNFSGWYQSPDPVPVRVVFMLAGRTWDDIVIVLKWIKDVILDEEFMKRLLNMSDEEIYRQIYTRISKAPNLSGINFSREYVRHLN
Recorded pKd values for a group of binders are listed next.
Lab note — pKd values are minus log10 of concentrations in M.

Worked examples, 2 binders total:
binder | recorded measurement
NHP-Comp_MPER-GT10v55_W26-11 (antibody, V domains shown) VH: EVQLVESGGGLAKPGGSLRLSCAASGFTFSNYWMCWVRQAPGKGLEWISVINSVTSGTYYADSVKGRFTISRENAKNTLYLQMDRLRVEDTAVYYCAWGLGLTAPPVYWGQGVLVTVSS VL: ETVVTQEPSLSVSPGGTVTLTCGLSSGSVSTSNYPSWYQQTPGQAPRTLVYRTNIRPSGVPDRFSGSILGNKAALTITGAQADDESDFYCLFYMGSGIWVFGGGTRLTV | 7.89
MPER18_d21_45.2_v55_21 (antibody, V domains shown) VH: QVQLQESGPGLVKPSETLSLTCTVSGGSISSYYWSWIRQPPGKGLEWIGYISYSGSTNYNPSLKSRVTISVDTSKNQFSLKLSSVTTADTAVYYCAREPPYYDFWNELSMGVGAFDIWGQGTMVTVSS VL: DVLMTQIPLSLPVSLGDQASISCSSSQSIVQNNGNTFLEWFLQKPGQSPKLLIYRVSNRFSGVPDRFSGSGSGTDFTLKISRVEAEDLGVYYCFQGSHVPWTFGGGTKLEIK | 8.66

Alright, here's another binder for you.
Reported pKd of NHP-10E8_MPER-GT10v55_W3-20 (antibody, V domains shown) VH: EVQLVESGGGLVQPGGSLRLSCAASGFSFSNYWMSWVRQAPGKGLEWVGFIKNKADGGTAAYAESVKGRFTISRDDSKNTLYLQMNSLKTEDTAVYFCARDLGRYNFWSAFYSQNRFDVWGPGVLVTVSS VL: SYEVTQPPSVSVSPGQMARITCGGDNLGSKYVHWYQQKPAQAPVMVMYDDSERPSGIPERFSGSKSGNTATLTISGVEAGDEADYYCQVWDSSSDHPLFGGGTRLTV : 8.32
